Target: α-Glucosidase from recombinant yeast (Saccharomyces cerevisiae)
Construct: purchased Shanghai yuanye Bio-Technology Co. Ltd; host or cells: recombinant yeast
Sequence (P53341 whole entry): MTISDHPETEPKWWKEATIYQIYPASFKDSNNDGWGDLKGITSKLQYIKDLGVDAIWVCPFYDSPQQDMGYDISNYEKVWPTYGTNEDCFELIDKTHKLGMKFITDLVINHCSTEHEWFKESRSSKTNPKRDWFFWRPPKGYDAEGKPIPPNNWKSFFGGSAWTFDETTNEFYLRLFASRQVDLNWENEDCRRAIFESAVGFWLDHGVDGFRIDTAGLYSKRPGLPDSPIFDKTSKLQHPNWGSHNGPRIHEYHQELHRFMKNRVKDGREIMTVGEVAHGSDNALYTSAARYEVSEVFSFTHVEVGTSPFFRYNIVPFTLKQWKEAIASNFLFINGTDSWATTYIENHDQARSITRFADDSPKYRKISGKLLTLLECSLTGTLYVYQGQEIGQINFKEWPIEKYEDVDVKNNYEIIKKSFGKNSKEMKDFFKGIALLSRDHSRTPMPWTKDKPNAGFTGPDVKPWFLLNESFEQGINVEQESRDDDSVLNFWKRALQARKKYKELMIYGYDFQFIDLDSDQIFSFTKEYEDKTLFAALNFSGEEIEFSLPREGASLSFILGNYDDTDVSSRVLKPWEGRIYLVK
Assay: biochemical
Format: biochemical
Conditions: 1/IC50; Table 4, S4
observationType: Inhibitory score

> print(dat)
                                   compound  numericvalue
1  CCCCC/C=C\CC(O)CCCCCCCCC(=O)O (stereo not drawn) [10-HOA, 10-hydroxy-cis-12-octadecenoic acid]          2.58
2  CCCCCCCC/C=C\CCCCCCCC(=O)OCCCCCC [Hexyl, hexyl oleate]          0.24
3  CCCCCCCC/C=C\CCCCCCCC(=O)OCCCCCCCC [Octyl, octyl oleate]          0.31
4  CCCCCCCC/C=C\CCCCCCCC(=O)OCCCCC [Pentyl, amyl oleate]          0.31
5  CCCCCCCCC(O)CCCCCCCCC(=O)O (stereo not shown) [10-HSA, 10-hydroxystearic acid]          0.58
6  CCCCCCCC/C=C\CCCCCCCC(=O)OC(C)C [Isopropyl, isopropyl oleate]          1.67
7  CCCCCCCC/C=C\CCCCCCCC(=O)OCCCC [Butyl, butyl oleate]          0.43
